- TESTED ON: Sigma non-opioid intracellular receptor 1 (Homo sapiens)
- ASSAY EXPLANATION: biochemical
- Description: Displacement of [3H](+)pentazocine from human sigma 1 receptor transfected in HEK293 cell membranes after 120 mins by scintillation counter
Ki for assorted compounds

| COMPOUND | TESTED ON | VALUE UNIT | VALUE QUALIFIER | Ki |
| --- | --- | --- | --- | --- |
| Clc1ccc(-n2ccc(OCCOCCN3CCCCC3)n2)cc1Cl | Sigma non-opioid intracellular receptor 1 (Homo sapiens) | nM | = | 36.8 |
| CC(=O)N1CCN(CCOc2cc(C)n(-c3ccc4ccccc4c3)n2)CC1 | Sigma non-opioid intracellular receptor 1 (Homo sapiens) | nM | = | 83.4 |
| CN1CCN(CCc2ccc(Cl)c(Cl)c2)CC1 | Sigma non-opioid intracellular receptor 1 (Homo sapiens) | nM | = | 6.3 |
| CCN(CC)CCCCOc1cc(C)n(-c2ccc(Cl)c(Cl)c2)n1 | Sigma non-opioid intracellular receptor 1 (Homo sapiens) | nM | = | 11.7 |
| CN1CCN(CC(O)COc2ccn(-c3ccc(Cl)c(Cl)c3)n2)CC1 (configuration not stated) | Sigma non-opioid intracellular receptor 1 (Homo sapiens) | nM | = | 233 |
| Clc1ccc(-n2ccc(OCCCCN3CCOCC3)n2)cc1Cl | Sigma non-opioid intracellular receptor 1 (Homo sapiens) | nM | = | 17.6 |
| Cc1cc(OCCN2CCCCCC2)nn1-c1ccc(Cl)c(Cl)c1 | Sigma non-opioid intracellular receptor 1 (Homo sapiens) | nM | = | 9.4 |
| Cc1cc(OCCN2C[C@@H](C)O[C@@H](C)C2)nn1-c1ccc2ccccc2c1 | Sigma non-opioid intracellular receptor 1 (Homo sapiens) | nM | = | 33.8 |
| Cc1cc(OCCN2CCN(c3ccccc3)CC2)nn1-c1ccc(Cl)c(Cl)c1 | Sigma non-opioid intracellular receptor 1 (Homo sapiens) | nM | = | 14.8 |
| Cc1cc(OCCN2CCOCC2)nn1-c1ccc(Cl)cc1Cl | Sigma non-opioid intracellular receptor 1 (Homo sapiens) | nM | = | 44 |
| Clc1ccc(-n2ccc(OCCN3CCOCC3)n2)cc1Cl | Sigma non-opioid intracellular receptor 1 (Homo sapiens) | nM | = | 8.2 |
| c1cn(C2CCCCC2)nc1OCCN1CCOCC1 | Sigma non-opioid intracellular receptor 1 (Homo sapiens) | nM | = | 23.1 |
| Clc1ccc(-n2ccc(NCCN3CCOCC3)n2)cc1Cl | Sigma non-opioid intracellular receptor 1 (Homo sapiens) | nM | = | 39.4 |
| Cc1cc(OCCN2CCCC2)nn1-c1ccc(Cl)c(Cl)c1 | Sigma non-opioid intracellular receptor 1 (Homo sapiens) | nM | = | 5.2 |
| Cc1cc(OCCN2CCN(C)CC2)nn1-c1ccc(Cl)c(Cl)c1 | Sigma non-opioid intracellular receptor 1 (Homo sapiens) | nM | = | 11.1 |
| Cc1cc(OCCCCN2C[C@@H](C)O[C@@H](C)C2)nn1-c1ccc2ccccc2c1 | Sigma non-opioid intracellular receptor 1 (Homo sapiens) | nM | = | 65 |
| Clc1ccc(-n2ccc(OCCN3CCOCC3)n2)cc1 | Sigma non-opioid intracellular receptor 1 (Homo sapiens) | nM | = | 17.8 |
| CCN(CC)CCOc1cc(C)n(-c2ccc(Cl)c(Cl)c2)n1 | Sigma non-opioid intracellular receptor 1 (Homo sapiens) | nM | = | 9.9 |
| CCN(CC)CCOc1cc(C)n(-c2ccc3ccccc3c2)n1 | Sigma non-opioid intracellular receptor 1 (Homo sapiens) | nM | = | 47 |
| Cc1cc(OCCN2CCCCC2)nn1-c1ccc2ccccc2c1 | Sigma non-opioid intracellular receptor 1 (Homo sapiens) | nM | = | 10 |
| O=C(CN1CCCCC1)Nc1ccn(-c2ccc(Cl)c(Cl)c2)n1 | Sigma non-opioid intracellular receptor 1 (Homo sapiens) | nM | = | 80.8 |
| Cc1cc(OCCNC2CCCCC2)nn1-c1ccc(Cl)c(Cl)c1 | Sigma non-opioid intracellular receptor 1 (Homo sapiens) | nM | = | 8.5 |
| Clc1ccc(-n2ccc(OCCN3CCCCC3)n2)cc1Cl | Sigma non-opioid intracellular receptor 1 (Homo sapiens) | nM | = | 16.7 |
| c1ccc2cc(-n3ccc(OCCN4CCOCC4)n3)ccc2c1 | Sigma non-opioid intracellular receptor 1 (Homo sapiens) | nM | = | 33.3 |
| Clc1ccc(-n2ccc(OCCN3CCCCCC3)n2)cc1Cl | Sigma non-opioid intracellular receptor 1 (Homo sapiens) | nM | = | 8.9 |
| CCN(CC)CCCCOc1ccn(-c2ccc(Cl)c(Cl)c2)n1 | Sigma non-opioid intracellular receptor 1 (Homo sapiens) | nM | = | 17.2 |
| CCOC(=O)N1CCN(CCOc2cc(C)n(-c3ccc(Cl)c(Cl)c3)n2)CC1 | Sigma non-opioid intracellular receptor 1 (Homo sapiens) | nM | = | 44 |
| Cc1cc(OCCN2CCCC2)nn1-c1ccc2ccccc2c1 | Sigma non-opioid intracellular receptor 1 (Homo sapiens) | nM | = | 9.9 |
| Clc1ccc(-n2ccc(OCCN3CCCC3)n2)cc1Cl | Sigma non-opioid intracellular receptor 1 (Homo sapiens) | nM | = | 15.7 |
| Cc1cc(SCCN2CCOCC2)nn1-c1ccc(Cl)c(Cl)c1 | Sigma non-opioid intracellular receptor 1 (Homo sapiens) | nM | = | 14.2 |
| Cc1cc(OCCN2CCC(n3cnc4cccnc43)CC2)nn1-c1ccc(Cl)c(Cl)c1 | Sigma non-opioid intracellular receptor 1 (Homo sapiens) | nM | = | 16 |
| Cc1cc(OCCCCN2CCOCC2)nn1-c1ccc2ccccc2c1 | Sigma non-opioid intracellular receptor 1 (Homo sapiens) | nM | = | 99.1 |
| Cc1cc(OCCN2CCCCC2)nn1-c1ccc(Cl)c(Cl)c1 | Sigma non-opioid intracellular receptor 1 (Homo sapiens) | nM | = | 5.5 |
| Cc1cc(OCCCCn2ccnc2)nn1-c1ccc(Cl)c(Cl)c1 | Sigma non-opioid intracellular receptor 1 (Homo sapiens) | nM | = | 854 |
| COc1ccc(-n2nc(OCCN3CCOCC3)cc2C)cc1 | Sigma non-opioid intracellular receptor 1 (Homo sapiens) | nM | > | 1000 |
| Clc1ccc(-n2nc(OCCN3CCOCC3)cc2-c2ccccc2)cc1Cl | Sigma non-opioid intracellular receptor 1 (Homo sapiens) | nM | = | 224 |
| Cc1cc(OCCCN2CCCC2)nn1-c1ccc(Cl)c(Cl)c1 | Sigma non-opioid intracellular receptor 1 (Homo sapiens) | nM | = | 10.4 |

###

- ASSAY EXPLANATION: Displacement of [3H]di-o-tolylguanidine from sigma 2 receptor in guinea pig brain membranes after 120 mins by scintillation counter
- Type: cell membranes, Cavia porcellus, Membrane
MEASURED PROPERTY: Ki

| SAMPLE SMILES | OBSERVED |
| --- | --- |
| Clc1ccc(-n2ccc(NCCN3CCCCC3)n2)cc1Cl | 90.5 nM |
| Cc1c(OCCN2CCOCC2)nn(-c2ccc(Cl)c(Cl)c2)c1C | 351 nM |
| c1ccc2cc(-n3ccc(OCCN4CCOCC4)n3)ccc2c1 | > 1000 nM |
| Cc1cc(OCCN2CCCC2)nn1-c1ccc2ccccc2c1 | 395 nM |

###

Each record here notes measured pIC50.
- TESTED ON: Voltage-gated inwardly rectifying potassium channel KCNH2 (Homo sapiens, UniProt Q12809)
- Sequence (Q12809 whole entry): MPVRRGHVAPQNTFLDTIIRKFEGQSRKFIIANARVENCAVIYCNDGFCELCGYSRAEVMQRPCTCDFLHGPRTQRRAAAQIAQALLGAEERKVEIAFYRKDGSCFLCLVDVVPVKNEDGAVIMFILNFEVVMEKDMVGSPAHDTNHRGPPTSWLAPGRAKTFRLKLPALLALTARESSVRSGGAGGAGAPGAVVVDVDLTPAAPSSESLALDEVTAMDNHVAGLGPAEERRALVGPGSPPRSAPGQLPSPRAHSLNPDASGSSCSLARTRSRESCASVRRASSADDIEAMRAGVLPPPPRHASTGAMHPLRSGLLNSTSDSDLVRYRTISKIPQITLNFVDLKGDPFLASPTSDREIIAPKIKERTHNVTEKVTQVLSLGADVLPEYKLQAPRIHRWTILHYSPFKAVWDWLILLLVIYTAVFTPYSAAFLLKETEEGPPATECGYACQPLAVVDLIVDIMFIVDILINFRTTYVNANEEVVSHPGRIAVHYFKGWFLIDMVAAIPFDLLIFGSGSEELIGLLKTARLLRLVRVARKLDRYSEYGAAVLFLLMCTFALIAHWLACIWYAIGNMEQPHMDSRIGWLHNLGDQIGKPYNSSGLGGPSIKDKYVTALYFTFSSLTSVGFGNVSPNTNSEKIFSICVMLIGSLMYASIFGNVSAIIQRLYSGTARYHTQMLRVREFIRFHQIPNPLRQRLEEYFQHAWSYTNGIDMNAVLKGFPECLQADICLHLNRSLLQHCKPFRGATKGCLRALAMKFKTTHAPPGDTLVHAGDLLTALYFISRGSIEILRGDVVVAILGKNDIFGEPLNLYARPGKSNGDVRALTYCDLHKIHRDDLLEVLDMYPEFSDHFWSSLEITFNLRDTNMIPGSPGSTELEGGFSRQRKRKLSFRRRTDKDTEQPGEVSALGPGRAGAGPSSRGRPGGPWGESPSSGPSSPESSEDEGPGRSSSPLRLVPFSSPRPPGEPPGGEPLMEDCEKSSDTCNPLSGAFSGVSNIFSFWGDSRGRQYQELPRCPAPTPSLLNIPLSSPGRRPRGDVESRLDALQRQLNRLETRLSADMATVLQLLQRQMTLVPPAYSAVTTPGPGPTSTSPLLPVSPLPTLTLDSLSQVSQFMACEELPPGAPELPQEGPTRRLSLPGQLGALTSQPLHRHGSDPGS
pIC50: −log10 of the molar value.

| SAMPLE SMILES | TESTED ON | pIC50 |
| --- | --- | --- |
| c1ccc2cc(-n3ccc(OCCN4CCOCC4)n3)ccc2c1 | Voltage-gated inwardly rectifying potassium channel KCNH2 (Homo sapiens, UniProt Q12809) | < 5.00 |
| c1cn(C2CCCCC2)nc1OCCN1CCOCC1 | Voltage-gated inwardly rectifying potassium channel KCNH2 (Homo sapiens, UniProt Q12809) | < 5.00 |
| Cc1cc(SCCN2CCOCC2)nn1-c1ccc(Cl)c(Cl)c1 | Voltage-gated inwardly rectifying potassium channel KCNH2 (Homo sapiens, UniProt Q12809) | < 5.00 |

###

- TESTED ON: Sigma non-opioid intracellular receptor 1 (Homo sapiens, UniProt Q99720)
- Sequence (Q99720 whole entry): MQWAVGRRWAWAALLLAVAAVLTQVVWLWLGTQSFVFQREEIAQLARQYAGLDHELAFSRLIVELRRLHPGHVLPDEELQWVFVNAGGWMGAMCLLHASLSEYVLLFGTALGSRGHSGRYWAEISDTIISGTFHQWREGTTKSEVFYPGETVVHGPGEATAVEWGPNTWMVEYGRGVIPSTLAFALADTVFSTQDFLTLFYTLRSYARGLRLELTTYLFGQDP
- ASSAY EXPLANATION: biochemical
Reported Ki is given for each of the following compounds.
MEASURED PROPERTY: Ki

| SAMPLE SMILES | MEASURED PROPERTY | OBSERVED |
| --- | --- | --- |
| Cc1cc(OCCN2CCOCC2)n(-c2ccc3ccccc3c2)n1 | Ki | > 1 µM |
| Cc1cc(OCCN2CCOCC2=O)nn1-c1ccc2ccccc2c1 | Ki | > 1 µM |
| Cc1cc(OCCN2CCOCC2)nn1-c1ccccc1 | Ki | > 1 µM |

###

- ASSAY EXPLANATION: Displacement of [3H]di-o-tolylguanidine from sigma 2 receptor in guinea pig brain membranes after 120 mins by scintillation counter
- Type: cell membranes, Cavia porcellus, Membrane
pKi: −log10 of the molar value.
Recorded pKi, one value per entry.

| COMPOUND | pKi |
| --- | --- |
| COc1ccc(-n2nc(OCCN3CCOCC3)cc2C)cc1 | < 6.00 |
| Clc1ccc(-n2nc(OCCN3CCOCC3)cc2-c2ccccc2)cc1Cl | < 6.00 |
| Cc1cc(OCCN2CCOCC2)n(-c2ccc3ccccc3c2)n1 | < 6.00 |
| CN1CCN(CC(O)COc2ccn(-c3ccc(Cl)c(Cl)c3)n2)CC1 (stereo unspecified) | < 6.00 |
| Cc1cc(OCCN2CCOCC2)nn1-c1ccc(Cl)c(Cl)c1 | < 6.00 |
| CC(=O)C1CCN(CCOc2ccn(-c3ccc(Cl)c(Cl)c3)n2)CC1 | < 6.00 |

Numbers sourced from ChEMBL document CHEMBL2169838.
